target: T1, TauC3 (C-terminally truncated tau fragment ending at aspartate 421 of htau40) (human, UniProt P10636 1-738); test: Biacore off-rate ranking, TauC3 amine-coupled on CM5, one antibody concentration; one-phase exponential decay fit
T1 construct: Generated and purified by Genscript; also called Human TauC3; recombinant TauC3 protein
T1 sequence (P10636 other isoform, or with tags, fused parts or gaps): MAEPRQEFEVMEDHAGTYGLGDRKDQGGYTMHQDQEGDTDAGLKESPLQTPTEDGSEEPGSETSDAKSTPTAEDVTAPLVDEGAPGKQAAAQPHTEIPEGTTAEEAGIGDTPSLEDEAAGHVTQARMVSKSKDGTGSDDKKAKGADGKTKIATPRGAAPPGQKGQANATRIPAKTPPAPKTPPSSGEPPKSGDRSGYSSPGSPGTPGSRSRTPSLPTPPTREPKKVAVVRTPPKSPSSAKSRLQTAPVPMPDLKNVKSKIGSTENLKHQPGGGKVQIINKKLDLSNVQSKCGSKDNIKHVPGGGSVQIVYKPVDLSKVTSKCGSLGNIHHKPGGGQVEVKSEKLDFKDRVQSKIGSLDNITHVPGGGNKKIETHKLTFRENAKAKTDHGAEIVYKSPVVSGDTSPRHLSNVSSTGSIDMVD
readout-kind: koff (s⁻¹)
Only the number, expressed in s⁻¹, is required.

get_value(item= Tau01 HMKO HuG4k (antibody, V domains shown, human IgG4 kappa (HuG4K)) VH: LVQLVESGGGLVQPGGSLKLSCAASGFTFNTYAMNWVRQASGKGLEWVARIRSKSNNYATYYAASVKGRFTISRDDSKSMAYLQMDSLKTEDTAVYYCVGGGDFWGQGTLVTVSS VL: DIQMTQSPSSLSASVGDRVTITCRASQEISVYLGWYQQKPGKAPKRLIYGAFSLQSGVPSRFSGSRSGTEYTLTISSLQPEDFATYYCLQYVRYPWTFGGGTKVEIK , readout=koff) returns 0.000473

get_value(item= Tau01 HMKG (antibody, V domains shown, human IgG4 kappa (HuG4K)) VH: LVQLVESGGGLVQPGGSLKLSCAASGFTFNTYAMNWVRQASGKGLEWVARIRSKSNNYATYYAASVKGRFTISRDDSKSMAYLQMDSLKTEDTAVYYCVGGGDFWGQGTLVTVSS VL: DIQMTQSPSSLSASVGDRVTITCRASQEISVYLGWYQQKPGKAPKRLIYGAFTLQSGVPSRFSGSRSGTEFTLTISSLQPEDFATYYCLQYVRYPWTFGGGTKVEIK , readout=koff) returns 0.000453

get_value(item= Tau01 HMKM HuG4k (antibody, V domains shown, human IgG4 kappa (HuG4K)) VH: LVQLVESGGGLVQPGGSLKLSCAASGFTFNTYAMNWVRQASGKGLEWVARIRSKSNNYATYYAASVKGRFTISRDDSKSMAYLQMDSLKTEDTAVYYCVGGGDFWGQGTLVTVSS VL: DIQMTQSPSSLSASVGDRVTITCRASQEISVYLSWFQQKPGKAIKRLIYGAFSLQSGVPSRFSGSRSGTEYTLTISSLQPEDFATYYCLQYVRYPWTFGGGTKVEIK , readout=koff) returns 0.000264

get_value(item= MoTau01 HuG4K chimeric antibody (antibody, V domains shown, Mouse variable regions with human IgG4 / kappa constant regions (pHuG4, pHuK); also called chimeric Tau01) VH: EVQVVESGGGLVQPKGSLKLSCAASGFTFNTYAMNWVRQAPGKGLEWVARIRSKSNNYATYYADSVKDRFTISRDDSQSMVYLQMNNLKTEDTAMYYCVGGGDFWGQGTALTVSS VL: DIQMTQSPSSLSASLGERVSLTCRASQEISVYLSWFQQKPDGTIKRLIYGAFTLDSGVPKRFSGSRSGSDYSLTISSLESEDFADYYCLQYVRYPWTFGGGTKLEIK , readout=koff) returns 0.000414

get_value(item= Tau01 HMKI (antibody, V domains shown, human IgG4 kappa (HuG4K)) VH: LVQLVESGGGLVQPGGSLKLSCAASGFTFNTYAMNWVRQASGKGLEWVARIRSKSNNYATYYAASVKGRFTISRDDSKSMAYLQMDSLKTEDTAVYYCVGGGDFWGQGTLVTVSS VL: DIQMTQSPSSLSASVGDRVTITCRASQEISVYLGWYQQKPGKAPKRLIYGAFKLQSGVPSRFSGSRSGTEYTLTISSLQPEDFATYYCLQYVRYPWTFGGGTKVEIK , readout=koff) returns 0.00181

get_value(item= Tau01 HMKE HuG4k (antibody, V domains shown, human IgG4 kappa (HuG4K); also called KMKE) VH: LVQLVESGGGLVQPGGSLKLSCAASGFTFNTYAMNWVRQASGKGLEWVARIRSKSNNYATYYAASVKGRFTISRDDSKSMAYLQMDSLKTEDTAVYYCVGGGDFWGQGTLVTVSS VL: DIQMTQSPSSLSASVGDRVTITCRASQEISVYLGWFQQKPGKAPKRLIYGAFKLQSGVPSRFSGSRSGTEFTLTISSLQPEDFATYYCLQYVRYPWTFGGGTKVEIK , readout=koff) returns 0.000953

get_value(item= Tau01 HMKA (antibody, V domains shown, human IgG4 kappa (HuG4K)) VH: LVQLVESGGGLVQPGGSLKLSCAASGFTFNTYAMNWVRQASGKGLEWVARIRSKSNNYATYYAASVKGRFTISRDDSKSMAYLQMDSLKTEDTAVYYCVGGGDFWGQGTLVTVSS VL: DIQMTQSPSSLSASVGDRVTITCRASQEISVYLGWYQQKPGKAPKRLIYGAFKLQSGVPSRFSGSRSGTEFTLTISSLQPEDFATYYCLQYVRYPWTFGGGTKVEIK , readout=koff) returns 0.000882

get_value(item= Tau01 HMKJ (antibody, V domains shown, human IgG4 kappa (HuG4K)) VH: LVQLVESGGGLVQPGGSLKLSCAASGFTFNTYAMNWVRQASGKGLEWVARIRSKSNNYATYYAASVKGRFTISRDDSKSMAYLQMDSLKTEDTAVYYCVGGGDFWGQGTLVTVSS VL: DIQMTQSPSSLSASVGDRVTITCRASQEISVYLGWYQQKPGKAPKRLIYGAFSLQSGVPSRFSGSRSGTEFTLTISSLQPEDFATYYCLQYVRYPWTFGGGTKVEIK , readout=koff) returns 0.00136

get_value(item= Tau01 HMKP HuG4k (antibody, V domains shown, human IgG4 kappa (HuG4K); Lead candidate) VH: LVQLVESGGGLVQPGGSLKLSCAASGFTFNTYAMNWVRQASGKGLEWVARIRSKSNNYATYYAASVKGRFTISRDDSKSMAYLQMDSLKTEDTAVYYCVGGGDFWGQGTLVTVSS VL: DIQMTQSPSSLSASVGDRVTITCRASQEISVYLGWFQQKPGKAPKRLIYGAFKLQSGVPSRFSGSRSGTEYTLTISSLQPEDFATYYCLQYVRYPWTFGGGTKVEIK , readout=koff) returns 0.000811

get_value(item= Tau01 HMKN HuG4k (antibody, V domains shown, human IgG4 kappa (HuG4K)) VH: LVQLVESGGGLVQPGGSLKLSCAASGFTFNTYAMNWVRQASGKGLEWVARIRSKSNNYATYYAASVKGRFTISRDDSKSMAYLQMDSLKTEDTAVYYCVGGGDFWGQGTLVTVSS VL: DIQMTQSPSSLSASVGDRVTITCRASQEISVYLGWYQQKPGKAPKRLIYGAFTLQSGVPSRFSGSRSGTEYTLTISSLQPEDFATYYCLQYVRYPWTFGGGTKVEIK , readout=koff) returns 0.000878

Origin of measurements: patent US20220064272A1
